- tgt: His-His-USP7 (aa208-560, |C315A|) (Homo sapiens, UniProt Q93009, C315A)
- Construct: His-His-USP7 (aa208-560, |C315A|); His-His (N)
- Sequence (Q93009 208-560 C315A): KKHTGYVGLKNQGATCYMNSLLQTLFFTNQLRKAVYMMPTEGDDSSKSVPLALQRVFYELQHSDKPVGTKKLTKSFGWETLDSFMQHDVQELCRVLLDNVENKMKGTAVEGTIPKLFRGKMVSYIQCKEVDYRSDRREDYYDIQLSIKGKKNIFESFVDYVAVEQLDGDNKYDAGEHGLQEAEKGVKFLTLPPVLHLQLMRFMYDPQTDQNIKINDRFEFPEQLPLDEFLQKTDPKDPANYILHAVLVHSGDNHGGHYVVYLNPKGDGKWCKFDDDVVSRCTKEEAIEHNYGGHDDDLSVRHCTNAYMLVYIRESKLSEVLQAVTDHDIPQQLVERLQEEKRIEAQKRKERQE
- protocol-text: Evaluation of the inhibition of USP7 by the Fluorescence Intensity (FLINT) readings
- Type: biochemical
- settings: 0.25 nM His-His-USP7, compound incubated 60 minutes at 30° C., 500 nM Ubiquitin-Rhodamine-110 substrate; 50% reduction in kinetic rate
Just a reminder that ties go to 0: only IC50 strictly below 30 nM counts as 1.

IN: Here's an entry: NCc1ccc(Oc2ncn(CC3(O)CCN(C(=O)[C@@H]4CCC(F)(F)C[C@H]4c4ccccc4)CC3)c(=O)c2N)c(Cl)c1 [Example 69] . Is its IC50 below 30 nM?
OUT: 0

IN: Here's an entry: Nc1c(Oc2ccc3c(c2)OCO3)ncn(CC2(O)CCN(C(=O)[C@@H]3CCC(F)(F)C[C@H]3c3ccccc3)CC2)c1=O [Example 14] . Is its IC50 below 30 nM?
OUT: 0

IN: Here's an entry: CO[C@]1(C#Cc2ccccn2)CC[C@@H](C(=O)N2CC[C@](O)(Cn3cnc(Oc4ccc(F)cc4)c(N)c3=O)C(F)(F)C2)[C@H](c2ccccc2)C1 [Example 166] . Is its IC50 below 30 nM?
OUT: 1

IN: Here's an entry: COc1cc(O)cc(Oc2ncn(CC3(O)CCN(C(=O)[C@@H]4CCC(F)(F)C[C@H]4c4ccccc4)CC3)c(=O)c2N)c1 [Example 15] . Is its IC50 below 30 nM?
OUT: 1

IN: Here's an entry: Nc1c(Oc2ccc3c(c2)CNC3)ncn(CC2(O)CCN(C(=O)[C@@H]3CCC(F)(F)C[C@H]3c3ccccc3)CC2)c1=O [Example 32] . Is its IC50 below 30 nM?
OUT: 0

IN: Here's an entry: Nc1c(Oc2ccc(F)cc2)ncn(CC2(O)CCN(C(=O)[C@@H]3CCC(F)(F)C[C@H]3c3ccccc3)CC2(F)F)c1=O (stereo partly drawn) [Example 45] . Is its IC50 below 30 nM?
OUT: 0

====

- tgt: His-His-USP7 (aa208-560, |C315A|) (Homo sapiens, UniProt Q93009, C315A)
- Construct: His-His-USP7 (aa208-560, |C315A|); His-His (N)
- protocol-text: Evaluation of the inhibition of USP7 by the Fluorescence Intensity (FLINT) readings
- Format: biochemical
- settings: 0.25 nM His-His-USP7, compound incubated 60 minutes at 30° C., 500 nM Ubiquitin-Rhodamine-110 substrate; 50% reduction in kinetic rate
Just a reminder that ties go to No: only IC50 strictly below 0.1 µM counts as Yes.

IN: Here's an entry: `Nc1c(Oc2ccc(CN3CCOCC3)cc2)ncn(CC2(O)CCN(C(=O)[C@@H]3CCC(F)(F)C[C@H]3c3ccccc3)CC2)c1=O` . Is its IC50 below 0.1 µM?
OUT: No

IN: Here's an entry: Nc1c(Oc2ccc(F)cc2)ncn(CC2(O)CCN(C(=O)[C@@H]3CCC(F)(F)C[C@H]3c3ccco3)CC2)c1=O (relative stereo) . Is its IC50 below 0.1 µM?
OUT: No

IN: Here's an entry: `C#C[C@@]1(OC)CC[C@@H](C(=O)N2CCC(O)(Cn3cnc(Oc4ccc(F)cc4)c(N)c3=O)CC2)[C@H](c2ccccc2)C1` . Is its IC50 below 0.1 µM?
OUT: No

IN: Here's an entry: `Nc1c(Oc2ccc(CNc3ccccc3)cc2)ncn(CC2(O)CCN(C(=O)[C@@H]3CCC(F)(F)C[C@H]3c3ccccc3)CC2)c1=O` . Is its IC50 below 0.1 µM?
OUT: No

IN: Here's an entry: `Nc1c(Oc2cnc3cc[nH]c3c2)ncn(CC2(O)CCN(C(=O)[C@@H]3CCC(F)(F)C[C@H]3c3ccccc3)CC2)c1=O` . Is its IC50 below 0.1 µM?
OUT: No

IN: Here's an entry: `Cn1ccnc1C#C[C@]1(F)CC[C@@H](C(=O)N2CCC(O)(Cn3cnc(Oc4ccc(F)cc4)c(N)c3=O)CC2)[C@H](c2ccccc2)C1` . Is its IC50 below 0.1 µM?
OUT: Yes

====

- tgt: His-His-USP7 (aa208-560, |C315A|) (Homo sapiens, UniProt Q93009, C315A)
- Construct: His-His-USP7 (aa208-560, |C315A|); His-His (N)
- protocol-text: Evaluation of the inhibition of USP7 by the Fluorescence Intensity (FLINT) readings
- Assay type: biochemical
- settings: 0.25 nM His-His-USP7, compound incubated 60 minutes at 30° C., 500 nM Ubiquitin-Rhodamine-110 substrate; 50% reduction in kinetic rate
Structures can show the parent of a compound that is named as a salt.
Exercise: for every item that follows, state its recorded IC50.
Give the value in nM but do not write nM after it.

IN: Entry CC(N)c1ccc(Oc2ncn(CC3(O)CCN(C(=O)[C@@H]4CCC(F)(F)C[C@H]4c4ccccc4)CC3)c(=O)c2N)cc1 (single isomer, unassigned; diastereoisomer 1) [Example 54] : reported IC50 = ?
OUT: 7.4

IN: Entry Nc1c(Oc2ccc3c(c2)CNCC3)ncn(CC2(O)CCN(C(=O)[C@@H]3CCC(F)(F)C[C@H]3c3ccccc3)CC2)c1=O [Example 26, hydrochloride] : reported IC50 = ?
OUT: 20

IN: Entry COC(=O)c1cccc(Oc2ncn(CC3(O)CCN(C(=O)[C@@H]4CCC(F)(F)C[C@H]4c4ccccc4)CC3)c(=O)c2N)c1 [Example 27] : reported IC50 = ?
OUT: 85

IN: Entry Nc1c(Oc2ccc(F)cc2)ncn(CC2(O)CCN(C(=O)[C@@H]3CCC(F)(F)C[C@H]3c3ccccc3)CC2)c1=O [Example 5] : reported IC50 = ?
OUT: 63.4

IN: Entry Nc1c(Oc2ccc(CN(C=O)CC(F)(F)F)cc2)ncn(CC2(O)CCN(C(=O)[C@@H]3CCC(F)(F)C[C@H]3c3ccccc3)CC2)c1=O [Example 74] : reported IC50 = ?
OUT: 227

IN: Entry Nc1c(Oc2cccnc2)ncn(CC2(O)CCN(C(=O)C3CCC(F)(F)CC3c3ccccc3)CC2)c1=O (stereo not drawn) [Example 84] : reported IC50 = ?
OUT: 212

IN: Entry Cc1nccnc1C#C[C@@]1(F)CC[C@@H](C(=O)N2CCC(O)(Cn3cnc(Oc4ccc(F)cc4)c(N)c3=O)CC2)[C@H](c2ccccc2)C1 [Example 148] : reported IC50 = ?
OUT: 26.6

IN: Entry Nc1c(Oc2ccc3c(c2)CC(O)C3)ncn(CC2(O)CCN(C(=O)[C@@H]3CCC(F)(F)C[C@H]3c3ccccc3)CC2)c1=O (stereo partly drawn) [Example 48] : reported IC50 = ?
OUT: 62

IN: Entry Nc1c(Oc2ccc(F)cc2)ncn(CC2(O)CCN(C(=O)[C@@H]3CC[C@](O)(c4ccccc4)C[C@H]3c3ccccc3)CC2)c1=O (relative stereo) [Example 102] : reported IC50 = ?
OUT: 461

IN: Entry Nc1c(Oc2ccc(C=O)cc2)ncn(CC2(O)CCN(C(=O)[C@@H]3CCC(F)(F)C[C@H]3c3ccccc3)CC2)c1=O [Example 44] : reported IC50 = ?
OUT: 38.7

IN: Entry Nc1c(Oc2ccc(F)cc2)ncn(CC2(O)CCN(C(=O)[C@@H]3CC[C@](F)(C#Cc4ncccn4)C[C@H]3c3ccccc3)CC2)c1=O [Example 141] : reported IC50 = ?
OUT: 41

IN: Entry CO[C@]1(C#Cc2cnccn2)CC[C@@H](C(=O)N2CCC(O)(Cn3cnc(Oc4ccc(F)cc4)c(N)c3=O)CC2)[C@H](c2ccccc2)C1 [Example 156] : reported IC50 = ?
OUT: 29.6

====

- tgt: His-His-USP7 (aa208-560, |C315A|) (Homo sapiens, UniProt Q93009, C315A)
- Construct: His-His-USP7 (aa208-560, |C315A|); His-His (N)
- protocol-text: Evaluation of the inhibition of USP7 by the Fluorescence Intensity (FLINT) readings
- Format: biochemical
- settings: 0.25 nM His-His-USP7, compound incubated 60 minutes at 30° C., 500 nM Ubiquitin-Rhodamine-110 substrate; 50% reduction in kinetic rate
- Procedure: USP7 activity was measured using Rhodamine-110 c-terminal labelled Ubiquitin as a substrate (UbiQ Bio). Incubation with USP7 results in the release of Rhodamine-110 leading to an increase in fluorescence which can be used in the continuous measurement of USP7 activity. […] The inhibition of increasing doses of compound was expressed as a percentage reduction in kinetic rate compared to the kinetic rates established between ‘DMSO only’ and ‘total inhibition’ controls (no USP7). […]
Just a reminder that ties go to criterion not met: only IC50 strictly below 90 nM counts as criterion met.

IN: Here's an entry: `Nc1c(Oc2ccc(F)cc2)ncn(CC2(O)CCN(C(=O)[C@@H]3CC[C@@](F)(C#Cc4cnccn4)C[C@H]3c3ccccc3)CC2)c1=O` . Is its IC50 below 90 nM?
OUT: criterion met

IN: Here's an entry: `Nc1c(Oc2cccc(C(F)(F)F)c2)ncn(CC2(O)CCN(C(=O)[C@@H]3CCC(F)(F)C[C@H]3c3ccccc3)CC2)c1=O` . Is its IC50 below 90 nM?
OUT: criterion not met

IN: Here's an entry: `Nc1c(Oc2ccc(OCCO)cc2)ncn(CC2(O)CCN(C(=O)[C@@H]3CCC(F)(F)C[C@H]3c3ccccc3)CC2)c1=O` . Is its IC50 below 90 nM?
OUT: criterion met

IN: Here's an entry: `Nc1c(Oc2ccccc2)ncn(CC2(O)CCN(C(=O)[C@@H]3CCC(F)(F)C[C@H]3n3cccc3)CC2)c1=O` . Is its IC50 below 90 nM?
OUT: criterion not met

IN: Here's an entry: `N#Cc1ccc(Oc2ncn(CC3(O)CCN(C(=O)[C@@H]4CCC(F)(F)C[C@H]4c4ccccc4)CC3)c(=O)c2N)c(Cl)c1` . Is its IC50 below 90 nM?
OUT: criterion not met
